assay.comment: Stability in human plasma assessed as compound remaining measured after 2 hrs by LC-MS/MS analysis
Assay type: ADME, cell-free
applied.conditions: read-out: Stability
Please assign not met whenever remaining at 2 h is at or above 80%, and met whenever it is below.

is_below(remaining at 2 h, 80%) for COc1cc2c(N3CCCCC3)nc(NCc3ccc(C(C)(C)C)cc3)nc2cc1OC1CCCC1 ? met

is_below(remaining at 2 h, 80%) for COc1cc2c(N3CCOCC3)nc(NCc3ccc(F)cc3)nc2cc1OC1CCCC1 ? met

is_below(remaining at 2 h, 80%) for COc1ccc(CNc2nc(N3CCCCC3)c3cc(OC)c(OCc4ccccc4)cc3n2)cc1 ? met

is_below(remaining at 2 h, 80%) for COc1cc2c(N3CCCCC3)nc(NCc3ccc(F)cc3)nc2cc1OC1CCCC1 ? not met

is_below(remaining at 2 h, 80%) for COc1cc2c(N3CCCCC3)nc(NC(=O)c3ccc(F)cc3)nc2cc1OC1CCCC1 ? met

is_below(remaining at 2 h, 80%) for CC(C)[N+](C)(CCOC(=O)C1c2ccccc2Oc2ccccc21)C(C)C ? met

is_below(remaining at 2 h, 80%) for COc1cc2c(N3CCCCC3)nc(NCc3ccccc3)nc2cc1OC1CCCC1 ? not met

is_below(remaining at 2 h, 80%) for COc1cc2c(N3CCCCC3)nc(NCc3ccc(C(F)(F)F)cc3)nc2cc1OC1CCCC1 ? not met

is_below(remaining at 2 h, 80%) for COc1cc2c(N3CCCCC3)nc(N(C)C)nc2cc1OC1CCCC1 ? not met

----------
Please go through the items and note down their logD.
assay.comment: Lipophilicity, logD of compound in 1-octanol and phosphate buffer at pH 7.4 by HPLC-UV analysis
Format: physicochemical
applied.conditions: 1-octanol/phosphate buffer
Give the value as a plain number.

Entry CNc1nc(NCc2ccc(F)cc2)nc2cc(OC3CCCC3)c(OC)cc12 — recorded logD = 2.22

Entry COc1cc2c(N3CCCCC3)nc(NCc3ccc(C(F)(F)F)cc3)nc2cc1OC1CCCC1 — recorded logD = 2.94

Entry Clc1ccc(CNc2nc(N3CCCCC3)c3cc4c(cc3n2)OCO4)cc1 — recorded logD = 2.42

Entry COc1cc2c(N(C)C)nc(NCc3ccc(F)cc3)nc2cc1OC1CCCC1 — recorded logD = 2.46

Cited source for all entries: ChEMBL document CHEMBL5512633
